The following compounds are listed with their measured TGI values.
system: HL-60(TB) leukemia; assay: NCI tumour cell line growth inhibition, 48 h

COMPOUND	TGI
COc1cc(Nc2cnc3cc(N)ccc3n2)cc(OC)c1OC	> 100 µM
CCOC(=O)NC(Nc1ncn(C(NC(=O)OCC)(C(F)(F)F)C(F)(F)F)n1)(C(F)(F)F)C(F)(F)F	> 100 µM
Cn1c(=O)c2nc(N3CCOCC3)cnc2n(C)c1=O	> 100 µM
CC(=O)c1sc2c(c1OC(=O)c1ccc(Cl)cc1Cl)c(=O)n(-c1ccccc1)c(=S)n2-c1ccccc1	18.9 µM
CC(=O)c1nc2ccccc2n1CCN1CCN(C)CC1	> 26.2 µM
COc1ccc(=[O+]C)c2nssc1-2	> 100 µM
CCCC(c1nnnn1C1CCCCC1)N1CCN(C(=O)c2ccco2)CC1 (stereo not given)	> 100 µM
COc1ccc(C2N(c3ccc(F)c([N+](=O)[O-])c3)C(=O)N3C(c4ccc(OC)cc4)N(c4ccc(F)c([N+](=O)[O-])c4)C(=O)N23)cc1 (stereo not given)	> 100 µM
COc1ccc(-c2cc(-c3ccccc3)nc(/N=C\c3ccccc3)n2)c(O)c1	> 35.4 µM
[O-]c1ccccc1/C=N/c1nccs1.[O-]c1ccccc1/C=N/c1nccs1.[O]=[U+2]=[O]	> 100 µM
CCN(CC)CCC(=O)NC1c2ccccc2Oc2c(C)cccc21 (stereo not given)	> 100 µM
COC(=O)c1c(OC(C)=O)ccc2c1c1c(OC(C)=O)c3ccccc3c(OC(C)=O)c1n2C	48.1 µM
C=C1C(=O)O[C@H]2[C@H]1CC/C(COC(=O)CCCCCCC(=O)OC/C1=C/CC[C@@]3(C)O[C@H]3[C@H]3OC(=O)C(=C)[C@@H]3CC1)=C\CC[C@@]1(C)O[C@@H]21	4.23 µM
COc1ccccc1N1C(=O)/C(=C\c2cc(OC)c(OC)c(OC)c2)SC1c1ccccc1 (stereo not given)	> 100 µM
Cn1cc(-c2nc3c(F)cc4[nH]ncc4c3c3c2CCCC3)c(C(F)(F)F)n1	28.2 µM

* * *

The following molecules are listed with their measured TGI values.
tested on: ACHN renal; test: NCI tumour cell line growth inhibition, 48 h

MOLECULE	SYSTEM NAME	TGI
CCOc1nc(OCC)nc(-c2cccn2-c2ccccc2)n1	ACHN renal	> 100 µM
Cn1c(=O)c2nc(N3CCOCC3)cnc2n(C)c1=O	ACHN renal	> 100 µM
CC(=O)CC1(OC(=O)C2C(C=C(C)C)C2(C)C)C(=O)Nc2ccccc21 (stereo not drawn)	ACHN renal	> 100 µM
O=C(CNc1cccc(Cl)c1)Nn1c(-c2ccccc2)nc2ccccc2c1=O	ACHN renal	26.5 µM
O=C1C=CC(=O)c2c(O)c(NCCCN3CCOCC3)c(Cl)c(O)c21	ACHN renal	> 10 µM
COc1ccc(/C=C(\C#N)c2ccc(OC)cc2)cc1	ACHN renal	> 100 µM
COC(=O)c1cc(-c2ccc(OC)c(OC)c2)oc1-c1ccc(OC)c(OC)c1	ACHN renal	> 100 µM
O=C(Oc1cccc2cccnc12)c1cc2cc(CCl)ccc2oc1=O	ACHN renal	> 100 µM

* * *

tested on: MDA-MB-231 breast; assay: NCI tumour cell line growth inhibition, 48 h

MOLECULE	TGI
Cc1ccc(C2(c3ccc(C)cc3)SC(=C(C#N)C#N)c3ccccc32)cc1	> 100 µM
O=C(c1ccccc1)C(C(=O)c1ccccc1)c1nc2ccccc2sc1=O	> 25 µM
N=[N+]=NC1C(O)C(CO)OC1n1cnc2c(N)ncnc21 (configuration not stated)	> 100 µM
N#CCCN(CCC#N)CCN(CCN(CCC#N)CCC#N)CCN(CCC#N)CCC#N	> 100 µM
FC(F)(F)c1ccc(-c2cnc(Cl)nc2NC2CCCCCC2)cc1	> 100 µM
Cc1nc2cc([N+](=O)[O-])ccc2c(NCCCN(C)C)c1C	14.2 µM
CCOC(=O)NC(Nc1ncn(C(NC(=O)OCC)(C(F)(F)F)C(F)(F)F)n1)(C(F)(F)F)C(F)(F)F	> 100 µM

Reference source: PubChem BioAssay (NCI)
